Reference source: the supplement of paper PMC6331611

system: Salmonella enterica serovar Typhimurium SL1344; conditions: LPM pH 5.8
Structures can show the parent of a compound that is named as a salt.
Documented MIC across a set of compounds

Check out these entries, answers already filled in.
CCCCCCCCCCCCCCCC[n+]1ccccc1 [CETYLPYRIDINIUM CHLORIDE] = 12.5 µM
Cc1oc(=O)oc1CN1CCN(c2cc3c(cc2F)c(=O)c(C(=O)O)c2n3C(C)S2)CC1 (centres undefined) = ≤ 0.78 µM
CC1COc2c(N3CCN(C)CC3)c(F)cc3c(=O)c(C(=O)O)cn1c23 (centres undefined) = ≤ 0.78 µM
CCN1CCN(C(=O)N[C@@H](C(=O)N[C@@H]2C(=O)N3[C@@H]2SC(C)(C)[C@@H]3C(=O)O)c2ccccc2)C(=O)C1=O [PIPERACILLIN SODIUM] = 3.13 µM
CC(=O)[O][Hg][c]1ccccc1 [PHENYLMERCURIC ACETATE] = ≤ 0.78 µM
CCCCCCCCNC(C)C(O)c1ccc(SC(C)C)cc1 (centres undefined) = 50 µM
CCN(CC)C(C)CN1c2ccccc2Sc2ccccc21 (centres undefined) [ETHOPROPAZINE HYDROCHLORIDE] = > 50 µM
COc1cc(CNC(=O)CCCC/C=C/C(C)C)ccc1O = > 50 µM

# input Given the compound O=C(O)c1cn(C2CC2)c2cc(N3CCNCC3)c(F)cc2c1=O , what is its reported MIC?
# output > 50 µM

====

test system: Salmonella enterica serovar Typhimurium SL1344; settings: MHB
Structures can show the parent of a compound that is named as a salt.
MEASURED QUANTITY: MIC

CN(C)[C@@H]1C(O)=C(C(N)=O)C(=O)[C@@]2(O)C(O)=C3C(=O)c4c(O)ccc(Cl)c4[C@@H](O)[C@H]3C[C@@H]12 [DEMECLOCYCLINE HYDROCHLORIDE] = 6.25 µM

# input I have this molecule here, CC[C@H]1OC(=O)[C@H](C)[C@@H](O[C@H]2C[C@@](C)(OC)[C@@H](O)[C@H](C)O2)[C@H](C)[C@@H](O[C@@H]2O[C@H](C)C[C@H](N(C)C)[C@H]2O)[C@](C)(O)C[C@@H](C)CN(C)[C@H](C)[C@@H](O)[C@]1(C)O [AZITHROMYCIN] , and I need its recorded MIC.
# output ≤ 0.78 µM

# input What value of MIC has been reported for the following molecule? CO/N=C(\C(=O)N[C@@H]1C(=O)N2C(C(=O)O)=C(CSc3nnnn3C)CS[C@H]12)c1csc(N)n1 [CEFMENOXIME HYDROCHLORIDE]
# output ≤ 0.78 µM

# input Can you share its MIC? I mean this molecule: COc1c(N2CCNC(C)C2)c(F)cc2c(=O)c(C(=O)O)cn(C3CC3)c12 (stereo not given) [GATIFLOXACIN]
# output ≤ 0.78 µM

# input Any idea what its MIC is? The molecule is C[C@H]1[C@H](NC(=O)/C(=N\OC(C)(C)C(=O)O)c2csc(N)n2)C(=O)N1S(=O)(=O)O [AZTREONAM]
# output ≤ 0.78 µM

# input Which MIC value is on record for C[CH2][Hg][S]c1ccccc1C(=O)[O-].[Na+] [THIMEROSAL] ?
# output ≤ 0.78 µM

# input If you can, please state the reported MIC value of NC1CCN(c2c(F)cc3c(=O)c(C(=O)O)cn(C4CC4)c3c2Cl)C1 (stereo not given) [CLINAFOXACIN HYDROCHLORIDE] .
# output ≤ 0.78 µM

====

tested on: Salmonella enterica serovar Typhimurium SL1344; assay: intracellular MIC (10-fold luminescence reduction); higher = less potent; settings: RAW264.7 macrophages
Structures can show the parent of a compound that is named as a salt.
compounds and their reported intracellular MIC

C[C@@H]1CN(c2c(F)c(F)c3c(=O)c(C(=O)O)cn(C4CC4)c3c2F)C[C@H](C)N1 = ≤ 0.78 µM
CCn1cc(C(=O)O)c(=O)c2ccc(C)nc21 = > 50 µM
CO[C@H]1O[C@@H]2O[C@@]3(C)CC[C@H]4[C@H](C)CC[C@@H]([C@H]1C)[C@@]24OO3 = 12.5 µM
CO/N=C(\C(=O)N[C@@H]1C(=O)N2C(C(=O)OCOC(=O)C(C)(C)C)=C(/C=C\c3scnc3C)CS[C@H]12)c1csc(N)n1 = > 50 µM
CN1CCN(c2c(F)cc3c(=O)c(C(=O)O)cn4c3c2SCC4)CC1 [RUFLOXACIN HYDROCHLORIDE] = ≤ 0.78 µM

# input For Salmonella enterica serovar Typhimurium SL1344, provide intracellular MIC of O=C(CCCN1CCC(O)(c2ccc(Br)cc2)CC1)c1ccc(F)cc1 please.
# output ≤ 0.78 µM

# input Recorded intracellular MIC for O=C(O)c1cn(C2CC2)c2cc(N3CCNCC3)c(F)cc2c1=O with Salmonella enterica serovar Typhimurium SL1344, please?
# output ≤ 0.78 µM

# input Lab request: please report intracellular MIC under test system Salmonella enterica serovar Typhimurium SL1344 for Oc1c(I)cc(Cl)c2cccnc12
# output > 50 µM

# input API: value(readout= intracellular MIC, system= Salmonella enterica serovar Typhimurium SL1344, query= CCn1cc(C(=O)O)c(=O)c2cc(F)c(N3CCN(C)CC3)cc21 [PEFLOXACINE MESYLATE] )
# output 1.56 µM

# input Under Salmonella enterica serovar Typhimurium SL1344: intracellular MIC value of C[C@H]1[C@H](NC(=O)/C(=N\OC(C)(C)C(=O)O)c2csc(N)n2)C(=O)N1S(=O)(=O)O ?
# output 1.56 µM

====

test system: Salmonella enterica serovar Typhimurium SL1344; conditions: MHB
Structures can show the parent of a compound that is named as a salt.
MEASURED QUANTITY: MIC

CNC(=O)Oc1ccc2c(c1)[C@]1(C)CCN(C)[C@@H]1N2C [PHYSOSTIGMINE SALICYLATE] = > 50 µM
CCCCCCCCCCCCCCCC[n+]1ccccc1 [CETYLPYRIDINIUM CHLORIDE] = 50 µM
O=C(O)CN(CCN(CC(=O)O)CC(=O)O)CC(=O)O.[Na+].[Na+].[Na+] [TRISODIUM ETHYLENEDIAMINE TETRACETATE] = > 50 µM
CC[C@H]1OC(=O)[C@H](C)[C@@H](O[C@H]2C[C@@](C)(OC)[C@@H](O)[C@H](C)O2)[C@H](C)[C@@H](O[C@@H]2O[C@H](C)C[C@H](N(C)C)[C@H]2O)[C@](C)(O)C[C@@H](C)C(=O)[C@H](C)[C@@H](O)[C@]1(C)O = > 50 µM
COC(=O)C1=C(C)NC(C)=C(C(=O)OCC(C)C)C1c1ccccc1[N+](=O)[O-] (stereo not drawn) = > 50 µM

# input Given the entry CN[C@H]1CC[C@@H](c2ccc(Cl)c(Cl)c2)c2ccccc21 [SERTRALINE HYDROCHLORIDE] , report its measured MIC.
# output > 50 µM

# input I would be grateful if you could share the reported MIC for Cc1cc(C2CCCCC2)n(O)c(=O)c1 .
# output > 50 µM

# input I am curious: what MIC value has been reported for O=C(O)CCC(=O)OC[C@@H](NC(=O)C(Cl)Cl)[C@H](O)c1ccc([N+](=O)[O-])cc1 [CHLORAMPHENICOL SODIUM SUCCINATE] ?
# output 25 µM

====

# maps each entry to its MIC
tested on: Salmonella enterica serovar Typhimurium SL1344; details: LPM pH 5.8
Structures can show the parent of a compound that is named as a salt.

CCn1cc(C(=O)O)c(=O)c2cc(F)c(N3CCNC(C)C3)c(F)c21 (stereo not given) [LOMEFLOXACIN HYDROCHLORIDE] = 1.56 µM
CO/N=C1\CN(c2nc3c(cc2F)c(=O)c(C(=O)O)cn3C2CC2)CC1CN (stereo not given) [GEMIFLOXACIN MESYLATE] = ≤ 0.78 µM
NCc1ccc(S(N)(=O)=O)cc1 [MAFENIDE HYDROCHLORIDE] = > 50 µM

# input Sample C[C@H]1COc2c(N3CCN(C)CC3)c(F)cc3c(=O)c(C(=O)O)cn1c23 — what was its MIC?
# output ≤ 0.78 µM

====

Measured MIC values are reported for all entries that follow.
tested on: Salmonella enterica serovar Typhimurium SL1344; details: MHB
Where a name gives a salt, the structure may show the parent alone.

COC(=O)N/N=C/c1c[n+]([O-])c2ccccc2[n+]1[O-] [CARBADOX] = > 50 µM
Nc1ccncc1 [FAMPRIDINE] = > 50 µM
CCCCC(=O)N(Cc1ccc(-c2ccccc2-c2nnn[nH]2)cc1)[C@H](C(=O)O)C(C)C [VALSARTAN] = > 50 µM
CCn1cc(C(=O)O)c(=O)c2cc3c(cc21)OCO3 [OXOLINIC ACID] = 3.13 µM
Cc1oc(=O)oc1CN1CCN(c2cc3c(cc2F)c(=O)c(C(=O)O)c2n3C(C)S2)CC1 (stereo not drawn) [PRULIFLOXACIN] = ≤ 0.78 µM
CN1CCN(c2c(F)cc3c(=O)c(C(=O)O)cn4c3c2SCC4)CC1 [RUFLOXACIN HYDROCHLORIDE] = 1.56 µM
CN1C[C@H](CNC(=O)OCc2ccccc2)C[C@@H]2c3cccc4c3c(cn4C)C[C@H]21 [METERGOLINE] = > 50 µM

# input # query: MIC of entry CN(C)[C@@H]1C(O)=C(C(N)=O)C(=O)[C@@]2(O)C(O)=C3C(=O)c4c(O)cccc4[C@@](C)(O)[C@H]3[C@H](O)[C@@H]12 [OXYTETRACYCLINE]
# output 6.25 µM
